The reported measurements were obtained from patent US4363805A.

Measured blood pressure WD by item
Tested on: mongrel cats
Test: Inotropic and heart-circulatory effectiveness on narcotised cats, intravenous
Assay type: in vivo, cat
Conditions: 2.50 mg/kg i.v.; 6 animals
assayEndpoint: blood pressure WD

molecule="O=[N+]([O-])O[C@H]1CO[C@H]2[C@@H]1OC[C@@H]2NCCCCCc1ccccc1 [Example 30]" subjectoftest="mongrel cats" assayendpoint="blood pressure WD" experimentalvalue="> 10 min"
molecule="O=[N+]([O-])O[C@H]1CO[C@H]2[C@@H]1OC[C@H]2NCC(O)COc1cccc2ccccc12 (some centres unmarked) [Example 55]" subjectoftest="mongrel cats" assayendpoint="blood pressure WD" experimentalvalue="6.3 min"
molecule="O=[N+]([O-])O[C@H]1CO[C@H]2[C@@H]1OC[C@@H]2NCCCc1ccccc1 [Example 28]" subjectoftest="mongrel cats" assayendpoint="blood pressure WD" experimentalvalue="> 10 min"
molecule="O=[N+]([O-])O[C@H]1CO[C@H]2[C@@H]1OC[C@@H]2NCC(O)COc1cccc(C(F)(F)F)c1 (some centres unmarked) [Example 52]" subjectoftest="mongrel cats" assayendpoint="blood pressure WD" experimentalvalue="> 10 min"
molecule="N#Cc1ccccc1OCC(O)CN[C@H]1CO[C@H]2[C@@H]1OC[C@@H]2O[N+](=O)[O-] (some centres unmarked) [Example 50]" subjectoftest="mongrel cats" assayendpoint="blood pressure WD" experimentalvalue="> 10 min"
molecule="O=[N+]([O-])O[C@H]1CO[C@H]2[C@@H]1OC[C@@H]2NCCCOc1ccccc1 [Example 36]" subjectoftest="mongrel cats" assayendpoint="blood pressure WD" experimentalvalue="> 10 min"
molecule="O=[N+]([O-])O[C@H]1CO[C@H]2[C@@H]1OC[C@@H]2NCCCCc1ccccc1 [Example 29]" subjectoftest="mongrel cats" assayendpoint="blood pressure WD" experimentalvalue="> 10 min"
molecule="CCOc1ccccc1OCC(O)CN[C@H]1CO[C@H]2[C@@H]1OC[C@@H]2O[N+](=O)[O-] (some centres unmarked) [Example 47]" subjectoftest="mongrel cats" assayendpoint="blood pressure WD" experimentalvalue="> 9.0 min"

----------
Listing of entries alongside the reported dp/dt (inotropism) before.
System: mongrel cats
Test: Inotropic and heart-circulatory effectiveness on narcotised cats, intravenous
Assay type: in vivo, cat
Conditions: 0.25 mg/kg i.v., before administration; 6 animals
assayEndpoint: dp/dt (inotropism) before (mm.Hg/sec)

compound="O=[N+]([O-])O[C@H]1CO[C@H]2[C@@H]1OC[C@@H]2NCC(O)COc1cccc(C(F)(F)F)c1 (stereo partly shown)" subjectoftest="mongrel cats" outputunit=mm.Hg/sec experimentalvalue=6150
compound=O=[N+]([O-])O[C@H]1CO[C@H]2[C@@H]1OC[C@@H]2NCCCc1ccccc1 subjectoftest="mongrel cats" outputunit=mm.Hg/sec experimentalvalue=7667
compound=O=[N+]([O-])O[C@H]1CO[C@H]2[C@@H]1OC[C@@H]2NCCCCc1ccccc1 subjectoftest="mongrel cats" outputunit=mm.Hg/sec experimentalvalue=6480
compound="N#Cc1ccccc1OCC(O)CN[C@H]1CO[C@H]2[C@@H]1OC[C@@H]2O[N+](=O)[O-] (stereo partly shown)" subjectoftest="mongrel cats" outputunit=mm.Hg/sec experimentalvalue=6533

----------
System: mongrel cats
Assay: Inotropic and heart-circulatory effectiveness on narcotised cats, intravenous
Format: in vivo, cat
Settings: 0.25 mg/kg i.v.; 6 animals
assayEndpoint: heart frequency Δ (min⁻¹)

compound="O=[N+]([O-])O[C@H]1CO[C@H]2[C@@H]1OC[C@@H]2NCC(O)COc1cccc2ccccc12 (stereo partly shown) [Example 54]" subjectoftest="mongrel cats" experimentalvalue=-1.0
compound="CN(CCCOc1ccccc1)[C@H]1CO[C@H]2[C@@H]1OC[C@@H]2O[N+](=O)[O-] [Example 34]" subjectoftest="mongrel cats" experimentalvalue=-1.0
compound="O=[N+]([O-])O[C@H]1CO[C@H]2[C@@H]1OC[C@@H]2NCCCCc1ccccc1 [Example 29]" subjectoftest="mongrel cats" experimentalvalue=-4.7
compound="O=[N+]([O-])O[C@H]1CO[C@H]2[C@@H]1OC[C@@H]2NCCCCCc1ccccc1 [Example 30]" subjectoftest="mongrel cats" experimentalvalue=-1.7
compound="O=[N+]([O-])O[C@H]1CO[C@H]2[C@@H]1OC[C@@H]2NCC(O)COc1cccc(C(F)(F)F)c1 (stereo partly shown) [Example 52]" subjectoftest="mongrel cats" experimentalvalue=0
compound="O=[N+]([O-])O[C@H]1CO[C@H]2[C@@H]1OC[C@@H]2NCCCc1ccccc1 [Example 28]" subjectoftest="mongrel cats" experimentalvalue=-1.7

----------
Tested on: mongrel cats
Assay: Inotropic and heart-circulatory effectiveness on narcotised cats, intravenous
Type: in vivo, cat
Conditions: 2.50 mg/kg i.v.; 6 animals
assayEndpoint: dp/dt (inotropism) after (mm.Hg/sec)

compound="CCOc1ccccc1OCC(O)CN[C@H]1CO[C@H]2[C@@H]1OC[C@@H]2O[N+](=O)[O-] (some centres unmarked) [Example 47]" experimentalvalue=2933
compound="C=CCc1ccccc1OCC(O)CN[C@H]1CO[C@H]2[C@@H]1OC[C@@H]2O[N+](=O)[O-] (some centres unmarked) [Example 49]" experimentalvalue=3780
compound="O=[N+]([O-])O[C@H]1CO[C@H]2[C@@H]1OC[C@@H]2NCCCOc1ccccc1 [Example 36]" experimentalvalue=4000
compound="O=[N+]([O-])O[C@H]1CO[C@H]2[C@@H]1OC[C@@H]2NCCCCc1ccccc1 [Example 29]" experimentalvalue=3920
compound="O=[N+]([O-])O[C@H]1CO[C@H]2[C@@H]1OC[C@H]2NCC(O)COc1cccc2ccccc12 (some centres unmarked) [Example 55]" experimentalvalue=3517
compound="O=[N+]([O-])O[C@H]1CO[C@H]2[C@@H]1OC[C@@H]2NCC(O)COc1cccc2ccccc12 (some centres unmarked) [Example 54]" experimentalvalue=2817
compound="O=[N+]([O-])O[C@H]1CO[C@H]2[C@@H]1OC[C@@H]2NCCCc1ccccc1 [Example 28]" experimentalvalue=3600
compound="CN(CCCOc1ccccc1)[C@H]1CO[C@H]2[C@@H]1OC[C@@H]2O[N+](=O)[O-] [Example 34]" experimentalvalue=3850

----------
Test system: mongrel cats
Experiment: Inotropic and heart-circulatory effectiveness on narcotised cats, intravenous
Format: in vivo, cat
Settings: 0.25 mg/kg i.v.; 6 animals
assayEndpoint: heart frequency after (min⁻¹)

molecule="C=CCc1ccccc1OCC(O)CN[C@H]1CO[C@H]2[C@@H]1OC[C@@H]2O[N+](=O)[O-] (some centres unmarked)" subjectoftest="mongrel cats" outputunit=min⁻¹ experimentalvalue=201.2
molecule=O=[N+]([O-])O[C@H]1CO[C@H]2[C@@H]1OC[C@@H]2NCCCCCc1ccccc1 subjectoftest="mongrel cats" outputunit=min⁻¹ experimentalvalue=198.0
molecule=O=[N+]([O-])O[C@H]1CO[C@H]2[C@@H]1OC[C@@H]2NCCCCc1ccccc1 subjectoftest="mongrel cats" outputunit=min⁻¹ experimentalvalue=204.3
molecule="N#Cc1ccccc1OCC(O)CN[C@H]1CO[C@H]2[C@@H]1OC[C@@H]2O[N+](=O)[O-] (some centres unmarked)" subjectoftest="mongrel cats" outputunit=min⁻¹ experimentalvalue=195.3
molecule=O=[N+]([O-])O[C@H]1CO[C@H]2[C@@H]1OC[C@@H]2NCCCOc1ccccc1 subjectoftest="mongrel cats" outputunit=min⁻¹ experimentalvalue=204.3

----------
Experiment: Acute toxicity, intravenous, mice
Type: in vivo
Conditions: mouse, in vivo; intravenous, within 24 hours; read-out: Evaluated LD50-range
Measured LD50 at 24 h values are reported for all entries that follow.
assayEndpoint: LD50 at 24 h

molecule="COc1cc(OC)cc(OCCCN[C@H]2CO[C@H]3[C@@H]2OC[C@@H]3O[N+](=O)[O-])c1 [Example 66]" assayendpoint="LD50 at 24 h" experimentalvalue="100 to 200 mg/kg"
molecule="O=[N+]([O-])O[C@H]1CO[C@H]2[C@@H]1OC[C@@H]2NCCCc1ccccc1 [Example 28]" assayendpoint="LD50 at 24 h" experimentalvalue="50 to 100 mg/kg"
molecule="COc1ccc(OCC(O)CN[C@H]2CO[C@H]3[C@@H]2OC[C@@H]3O[N+](=O)[O-])cc1 (some centres unmarked) [Example 44]" assayendpoint="LD50 at 24 h" experimentalvalue="100 to 200 mg/kg"
molecule="CN(Cc1ccccc1)[C@H]1CO[C@H]2[C@@H]1OC[C@@H]2O[N+](=O)[O-] [Example 19]" assayendpoint="LD50 at 24 h" experimentalvalue="100 to 200 mg/kg"
molecule="O=[N+]([O-])O[C@H]1CO[C@H]2[C@@H]1OC[C@@H]2NCCOc1ccccc1 [Example 35]" assayendpoint="LD50 at 24 h" experimentalvalue="≥ 100 mg/kg"
molecule="O=[N+]([O-])O[C@H]1CO[C@H]2[C@@H]1OC[C@@H]2N1CCCCC1 [15 b]" assayendpoint="LD50 at 24 h" experimentalvalue="50 to 100 mg/kg"
molecule="COc1cccc(OC)c1OCCCN[C@H]1CO[C@H]2[C@@H]1OC[C@@H]2O[N+](=O)[O-] [Example 65]" assayendpoint="LD50 at 24 h" experimentalvalue="~50 mg/kg"
molecule="O=[N+]([O-])O[C@H]1CO[C@H]2[C@@H]1OC[C@@H]2N1CCCC1 [14 b]" assayendpoint="LD50 at 24 h" experimentalvalue="≥ 200 mg/kg"
molecule="CC(=O)Nc1ccc(OCCCN[C@H]2CO[C@H]3[C@@H]2OC[C@@H]3O[N+](=O)[O-])cc1 [Example 73]" assayendpoint="LD50 at 24 h" experimentalvalue="> 200 mg/kg"
molecule="O=[N+]([O-])O[C@H]1CO[C@H]2[C@@H]1OC[C@@H]2NCC(O)COc1cccc(C(F)(F)F)c1 (some centres unmarked) [Example 52]" assayendpoint="LD50 at 24 h" experimentalvalue="100 to 200 mg/kg"
molecule="COc1cccc(OCCCN[C@H]2CO[C@H]3[C@@H]2OC[C@@H]3O[N+](=O)[O-])c1OC [Example 67]" assayendpoint="LD50 at 24 h" experimentalvalue="~70 mg/kg"
molecule="O=[N+]([O-])O[C@H]1CO[C@H]2[C@@H]1OC[C@@H]2NCCCOc1cccc(C(F)(F)F)c1 [Example 58]" assayendpoint="LD50 at 24 h" experimentalvalue="~100 mg/kg"
molecule="O=[N+]([O-])O[C@H]1CO[C@H]2[C@@H]1OC[C@@H]2NCCCOc1ccc(Cl)cc1Cl [Example 72]" assayendpoint="LD50 at 24 h" experimentalvalue="> 100 mg/kg"
molecule="N[C@@H]1CO[C@H]2[C@@H]1OC[C@@H]2O[N+](=O)[O-] [2 b]" assayendpoint="LD50 at 24 h" experimentalvalue="> 200 mg/kg"
molecule="O=[N+]([O-])O[C@H]1CO[C@H]2[C@@H]1OC[C@@H]2NCCCCc1ccccc1 [Example 29]" assayendpoint="LD50 at 24 h" experimentalvalue="< 50 mg/kg"
molecule="COc1ccccc1OCC(O)CN[C@H]1CO[C@H]2[C@@H]1OC[C@@H]2O[N+](=O)[O-] (some centres unmarked) [Example 46]" assayendpoint="LD50 at 24 h" experimentalvalue="100 to 200 mg/kg"
molecule="N[C@H]1CO[C@H]2[C@@H]1OC[C@@H]2O[N+](=O)[O-] [1 c]" assayendpoint="LD50 at 24 h" experimentalvalue="> 200 mg/kg"
molecule="O=[N+]([O-])O[C@H]1CO[C@H]2[C@@H]1OC[C@@H]2NCc1ccccc1 [Example 25]" assayendpoint="LD50 at 24 h" experimentalvalue="100 to 200 mg/kg"
molecule="O=[N+]([O-])O[C@@H]1CO[C@H]2[C@@H]1OC[C@@H]2NCCCOc1ccccc1 [Example 42]" assayendpoint="LD50 at 24 h" experimentalvalue="50 to 100 mg/kg"
molecule="N#Cc1ccccc1OCC(O)CN[C@H]1CO[C@H]2[C@@H]1OC[C@@H]2O[N+](=O)[O-] (some centres unmarked) [Example 50]" assayendpoint="LD50 at 24 h" experimentalvalue="100 to 200 mg/kg"
molecule="O=[N+]([O-])O[C@H]1CO[C@H]2[C@@H]1OC[C@@H]2N1CCOCC1 [16 b]" assayendpoint="LD50 at 24 h" experimentalvalue="> 200 mg/kg"
molecule="O=[N+]([O-])O[C@@H]1CO[C@H]2[C@@H]1OC[C@@H]2NCCCCc1ccccc1 [Example 43]" assayendpoint="LD50 at 24 h" experimentalvalue="≥ 50 mg/kg"
molecule="O=[N+]([O-])O[C@H]1CO[C@H]2[C@@H]1OC[C@@H]2NCCCOc1ccccc1 [Example 36]" assayendpoint="LD50 at 24 h" experimentalvalue="50 to 100 mg/kg"
molecule="O=[N+]([O-])O[C@H]1CO[C@H]2[C@@H]1OC[C@@H]2NCCCOc1ccc(Cl)cc1 [Example 68]" assayendpoint="LD50 at 24 h" experimentalvalue="~100 mg/kg"
molecule="O=[N+]([O-])O[C@H]1CO[C@H]2[C@@H]1OC[C@@H]2NCCCOc1ccccc1Cl [Example 69]" assayendpoint="LD50 at 24 h" experimentalvalue="50 to 100 mg/kg"
molecule="O=[N+]([O-])O[C@H]1CO[C@H]2[C@@H]1OC[C@@H]2NCCCCOc1ccccc1 [Example 37]" assayendpoint="LD50 at 24 h" experimentalvalue="≥ 50 mg/kg"
